The entries below come with measured protein stability index values attached.
B1: ZC3H15 (parent)
chain: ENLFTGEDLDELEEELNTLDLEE

Variants of: B1
Assay: protein stability index of a GFP-peptide fusion (GPS, HEK-293T) (PSI 1-6); higher = more stable;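 also: lentivirally expressed fusions sorted by FACS into six bins by GFP to DsRed ratio, PSI derived from sequencing read proportions per bin multiplied by bin number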
Conditions: c terminus: native

Example entries and their recorded answers appear below.
E14Q :: 4.56
E11S :: 4.93
F4H :: 4.55
L16V :: 4.22
D20H :: 4.87
E11W :: 4.67

Which protein stability index value belongs to N2T ? 4.23

Which protein stability index value belongs to L16P ? 3.32

Which protein stability index value belongs to L12C ? 4.9

Which protein stability index value belongs to D20F ? 4.85

Which protein stability index value belongs to L9R ? 3.18

Which protein stability index value belongs to E22R ? 5.7

Which protein stability index value belongs to T18H ? 4.81
